System: SR leukemia
Test: NCI-60 one-dose screen, 48 h (100 = growth as untreated, 0 = no growth, -100 = all killed)
Settings: 10 µM unless noted
This is part of a sample that, as a whole, favours compounds with a hit. Of some 83,000 tested, about 20% had one in any assay.
reportedMetric: growth (%)
Use % as the unit, but write only the number.

Task item: Name the recorded growth for "O=C(/C=C/c1cccc(Cl)c1Cl)Nc1ncc(Cc2ccccc2Cl)s1" .
Reply: 19.1

Task item: Name the recorded growth for "CC1(C)CC[C@]2(CO)CC[C@]3(C)[C@H](CC[C@@H]4[C@@]5(C)CCCNC(C)(C)[C@@H]5CC[C@]43C)[C@H]2[C@H]1O" .
Reply: 10.5

Task item: Name the recorded growth for "O=S(=O)(NCCCNc1nccc(-c2c(-c3cccc(F)c3)nc3occn23)n1)c1ccc(F)cc1" .
Reply: 53.8

Task item: Name the recorded growth for "C/C(=N\O)[C@@H]1CC[C@]2(CO)CC[C@]3(C)[C@H](CC[C@@H]4[C@@]5(C)CCCNC(C)(C)[C@@H]5CC[C@]43C)[C@@H]12" .
Reply: 12.5

Task item: Name the recorded growth for "COc1ccc(C[n+]2c3ccccc3n3c4ccc(N)cc4ccc32)c(OC)c1OC" .
Reply: 41.2

---

Test system: IGROV1 ovarian
Assay: NCI-60 one-dose screen, 48 h
Conditions: 10 µM unless noted
About 83,000 compounds went through this panel and 20% of them were active in at least one assay; those are over-represented in the sample as a whole. Calls of active or inactive are those of the source. Rule for the calls: active = growth percent below 10; inactive = the rest.
Form entry, call: pick from True (active), False (inactive)

Task item: Hi team, can someone confirm the assay call for "CNCc1cccc2c1OCCOCCOCCNS(=O)(=O)c1ccc(cc1)-c1cnc(N)c(n1)C(=O)N2" ?
Reply: False

Task item: Hi team, can someone confirm the assay call for "CN1CCN(Cc2ccc(NC(=O)c3cncc(C#Cc4cnc(N)c5ncccc45)c3)cc2C(F)(F)F)CC1" ?
Reply: True

Task item: Hi team, can someone confirm the assay call for "COc1cc(C(=O)n2nc(N3CCOCC3)c3cc(-n4cccc4)ccc32)cc(OC)c1OC" ?
Reply: False

Task item: Hi team, can someone confirm the assay call for "COc1ccc(Nc2ncccc2/C=C/C(=O)c2cc(OC)c(OC)c(OC)c2)cc1" ?
Reply: True

Task item: Hi team, can someone confirm the assay call for N#Cc1ccc(O)c(C2=NCC(Cc3ccccc3)O2)c1 (stereo not given) ?
Reply: False

Task item: Hi team, can someone confirm the assay call for "COC(=O)c1c2c(c(C)[n+]([O-])c1C)C(=O)C(NCc1cccc(Cl)c1)=CC2=O" ?
Reply: True

Task item: Hi team, can someone confirm the assay call for "COc1cc(OC)cc(-c2ccc(-c3ccc(C(=N)N)o3)o2)c1" ?
Reply: False

Task item: Hi team, can someone confirm the assay call for N#Cc1c(-c2ccccc2)nc(SCC(O)CN2CCOCC2)nc1N1CCOCC1 (stereo not given) ?
Reply: True

Task item: Hi team, can someone confirm the assay call for "C[C@H](CCCC(=O)NCC#CCN1CCN(C)CC1)[C@H]1CC[C@H]2[C@@H]3CC[C@@H]4CC(=O)CC[C@]4(C)[C@H]3CC[C@]12C" ?
Reply: False

Task item: Hi team, can someone confirm the assay call for "Cn1cc(-c2csc(-c3cn(CCCN4CCOCC4)c4ccccc34)n2)c2cccnc21" ?
Reply: False

Task item: Hi team, can someone confirm the assay call for "Nn1c(=O)c(=O)[nH]c2c(cnn2-c2ccccc2)c1=O" ?
Reply: False

Task item: Hi team, can someone confirm the assay call for "N=C(N)c1ccc(-c2ccc(-c3ccccc3)s2)cc1" ?
Reply: False

Task item: Hi team, can someone confirm the assay call for "COc1ccccc1N(C(C)=O)C1=C(Cl)C(=O)c2ccccc2C1=O" ?
Reply: False

Task item: Hi team, can someone confirm the assay call for "Oc1ccc(/C=C/c2ccc(O)cc2)cc1" ?
Reply: False

Task item: Hi team, can someone confirm the assay call for "COc1cc(NC(=O)c2cncnc2Nc2ccc3c(ccn3Cc3ccccn3)c2)cc(OC)c1" ?
Reply: False

Task item: Hi team, can someone confirm the assay call for "CC/C(Cc1ccccc1)=C(\c1ccc(OCCCN(C)C)cc1)c1ccc(OC(=O)NCc2ccccc2)cc1" ?
Reply: False

Task item: Hi team, can someone confirm the assay call for "O=C(Cc1ccccc1)Nc1cccc(N=Cc2ccccc2O)c1" ?
Reply: False

Task item: Hi team, can someone confirm the assay call for "Cc1ncc(C(=O)Nc2ccc(CN3CCN(C)CC3)c(C(F)(F)F)c2)cc1C#Cc1cnc(N)c2ncccc12" ?
Reply: False

Task item: Hi team, can someone confirm the assay call for "Cc1ccc(Cl)cc1NC(=O)c1sc2nc3c(cc2c1N)C(=O)CCC3" ?
Reply: False

Task item: Hi team, can someone confirm the assay call for "COc1cccc(Nc2ncnc3cc(NC(=O)CCl)ccc23)c1" ?
Reply: True

---

Kindly state growth for each of the entries shown.
Tested on: MDA-MB-231 breast
Experiment: NCI-60 one-dose screen, 48 h (100 = growth as untreated, 0 = no growth, -100 = all killed)
Conditions: 10 µM unless noted
Compounds without any hit were thinned out: in the full panel of roughly 83,000, 20% have a hit.
Use % as the unit, but write only the number.

Task item: Name the recorded growth for "NC(=O)c1c(NC(=O)c2cccs2)sc2c1CCC(=O)C2" .
Reply: 26.1

Task item: Name the recorded growth for "NNCCc1ccc(NC(=O)CCCc2ccc(C(=O)Nc3ccccc3N)cc2)cc1" .
Reply: 67.5

Task item: Name the recorded growth for "C/C(=N\O)c1ccc(NC(=O)CSc2nnc(-c3cc(-c4ccc(S(C)(=O)=O)cc4)nc4ccccc34)n2-c2ccccc2)cc1" .
Reply: 76.9

Task item: Name the recorded growth for "CCOC(=O)c1c(C)nc2ccccc2c1/C=C/c1ccccc1" .
Reply: 81.9

Task item: Name the recorded growth for "C=C(c1ccc(OC)c(/C=C/C(=O)c2ccc3c(c2)OCO3)c1)c1cc(OC)c(OC)c(OC)c1" .
Reply: 29

---

Test system: SF-268 CNS
Assay: NCI-60 one-dose screen, 48 h
Conditions: 10 µM unless noted
This is part of a sample that, as a whole, favours compounds with a hit. Of some 83,000 tested, about 20% had one in any assay. Calls of active or inactive are those of the source. How the source made its calls: active means growth percent below 10; inactive means the rest.
Form entry, call: pick from active, inactive

Task item: Hi team, can someone confirm the assay call for "COc1ccc(-c2nc(-c3cn(C)c4ncccc34)cs2)cc1" ?
Reply: inactive

Task item: Hi team, can someone confirm the assay call for "CNC(=O)c1cc(Oc2cccc3nc(NC(=O)Nc4cc(C(F)(F)F)ccc4Cl)ccc23)ccn1" ?
Reply: inactive

Task item: Hi team, can someone confirm the assay call for "CC1(C)CC[C@]2(CO)CC[C@]3(C)[C@H](CC[C@@H]4[C@@]5(C)CCCNC(C)(C)[C@@H]5CC[C@]43C)[C@H]2[C@H]1O" ?
Reply: inactive

Task item: Hi team, can someone confirm the assay call for "CS(=O)(=O)c1ccc(NC(=O)c2ccccc2)nc1" ?
Reply: inactive

Task item: Hi team, can someone confirm the assay call for "CCNc1ccc(-c2nc3ccccc3n3cccc23)cc1" ?
Reply: inactive

Task item: Hi team, can someone confirm the assay call for "CC(C)(C)n1cc(-c2ccnc(NCCNS(=O)(=O)c3ccc(O)cc3)c2)c(-c2cccc(O)c2)n1" ?
Reply: inactive

Task item: Hi team, can someone confirm the assay call for "CC(C)(C)n1cc(-c2ccnc(NCCCNS(=O)(=O)c3cccc4ccccc34)c2)c(-c2cccc(F)c2)n1" ?
Reply: inactive

Task item: Hi team, can someone confirm the assay call for "O=C(Oc1ccc(CCl)cc1)c1ccccc1" ?
Reply: active

Task item: Hi team, can someone confirm the assay call for "COC(=O)c1c2c(c(C)[n+]([O-])c1C)C(=O)C(NCc1cccc(Cl)c1)=CC2=O" ?
Reply: inactive

Task item: Hi team, can someone confirm the assay call for "C#CC#CC#CC#CC#CC#CC#CC#CC[C@@H]1OC[C@@H](COC(=O)O[C@@H](C(=O)O[C@H]2C[C@@]3(O)[C@@H](OC(=O)c4ccccc4)[C@@H]4[C@]5(OC(C)=O)CO[C@@H]5C[C@H](O)[C@@]4(C)C(=O)[C@H](OC(C)=O)C(=C2C)C3(C)C)[C@@H](NC(=O)c2ccccc2)c2ccccc2)O1" ?
Reply: inactive

Task item: Hi team, can someone confirm the assay call for "O=C(/C=C/c1ccc(Cl)cc1)c1cccc(OCCCOc2cccc(C(=O)/C=C/c3ccc(Cl)cc3)c2)c1" ?
Reply: inactive

Task item: Hi team, can someone confirm the assay call for N#Cc1ccc(O)c(C2=NCC(Cc3ccccc3)O2)c1 (configuration not stated) ?
Reply: inactive

Task item: Hi team, can someone confirm the assay call for "NC(N)=NS(=O)(=O)c1ccc(NC2=C(I)C(=O)c3ncccc3C2=O)cc1" ?
Reply: inactive

Task item: Hi team, can someone confirm the assay call for "CC1=C(C(=O)Nc2nc(-c3ccc(Cl)cc3)cs2)[C@H](c2ccc(O)cc2)NC(=O)N1" ?
Reply: inactive

Task item: Hi team, can someone confirm the assay call for "O=C(CN1CCN(c2cc3c(cc2F)c(=O)c(C(=O)O)cn3C2CC2)CC1)N/N=C/c1ccco1" ?
Reply: inactive

Task item: Hi team, can someone confirm the assay call for "N#Cc1c(-c2ccccc2)nc(SCc2nnc(-c3ccc(Cl)cc3)o2)[nH]c1=O" ?
Reply: inactive

Task item: Hi team, can someone confirm the assay call for "Cn1cc(-c2csc(-c3c[nH]c4ccc(F)cc34)n2)c2ccnc(Cl)c21" ?
Reply: inactive
